# Tested on: IGROV1 ovarian
# TEST: NCI tumour cell line growth inhibition, 48 h
READOUT LABEL: TGI

Use these answered entries as a reference point.
C/C(=N\NC(N)=O)C(CN(C)C)C(c1ccccc1)c1c(O)c2ccccc2oc1=O (stereo not given) = > 100 µM
COc1ccc(NCC(=O)Nn2c(C)nc3ccc(S(=O)(=O)Nc4ccc(OC)cc4)cc3c2=O)cc1 = > 100 µM
C=C(N=[N+]=[N-])c1cn(C2CC(O)C(CO)O2)c(=O)[nH]c1=O (stereo not given) = > 100 µM
COc1ccc(/C=C(\NC(=O)c2ccccc2)C(=O)NN(C)c2ccnc3cc(Cl)ccc23)cc1OC = 47.6 µM
CCOC(=O)C(NC(=O)NC(C(=O)OCC)C(=O)OCC)C(=O)OCC = > 100 µM
Cc1ccc(NC(=O)CC(=O)n2nc(C)c(N=Nc3ccc(S(=O)(=O)CCOS(=O)(=O)O)cc3)c2C)cc1 = > 100 µM
CN1CN(c2ccccc2)C2(CCN(CCCC(=O)c3cccs3)CC2)C1=O = > 100 µM
N#Cc1c2c([nH]c(=O)c1C#N)CCCC2 = > 100 µM

Please look up its TGI: `Nc1ccc(S(=O)(=O)c2ccc(NC(=O)c3cccnc3)cc2)cc1`
> 100 µM

Please look up its TGI: `C/C=C(/CCCCNCCCC)[Si](C)(C)C`
37 µM

---

# Tested on: MDA-MB-435
# TEST: NCI tumour cell line growth inhibition, 48 h; in the data active = GI50 below about 0.43 µM; inactive = the rest
Response enum: active, inactive

Fc1ccc(Nc2nc(NCCNc3ccnc4cc(Cl)ccc34)nc(N3CCOCC3)n2)cc1 = inactive
Clc1ccc2nc(Oc3ccccc3)cnc2c1 = inactive
O=c1oc2ccc(Cl)cc2c(=O)n1-c1ccc(I)cc1F = active
O=c1[nH]cnc2c(C3OC(CO)C(O)C3O)scc12 (stereo unspecified) = inactive
N#CC1C(N)=NNC12Nc1ccccc1N2 (stereo unspecified) = inactive
COc1cc(/C=C(/c2ccccc2)[N+](=O)[O-])c(OC)c2c1OCO2 = inactive
C=C(C)CCC(C)N1CCC(N2CCC(C(=O)NCCc3ccccc3)CC2)CC1 (stereo unspecified) = inactive
S=c1ssc(Sc2ccccn2)c1Cl = inactive

Each compound tested received a call. Report the one for `Cn1cc(-c2ccc(CNc3cc(-c4cnc5cc(OCCCN6CCCC6)ccn45)ncn3)cc2)cn1` .
inactive

Each compound tested received a call. Report the one for `COc1ccc(-c2ccc(/C=N/n3c(COc4ccc(Cl)cc4)n[nH]c3=S)o2)c([N+](=O)[O-])c1` .
inactive

Each compound tested received a call. Report the one for `Fc1ccc(Nc2nccc(-c3c(-c4ccc(C(F)(F)F)cc4)nn4ncccc34)n2)cc1F` .
inactive

---

Reported values of GI50 for individual entries
# Test system: SK-MEL-2 melanoma
# TEST: NCI tumour cell line growth inhibition, 48 h

COc1ccccc1-c1c(C)nn2c(NCc3ccccn3)cc(C)nc12 = > 50 µM
Nc1nc(OCc2ccccc2)nc2[nH]ncc12 = 20.3 µM

Next item in the queue.
Please look up its GI50: O=c1[nH]cnc2c(C3OC(CO)C(O)C3O)scc12 (stereo unspecified)
44.8 µM

---

# Test system: SW-620 colon
# TEST: NCI tumour cell line growth inhibition, 48 h; in the data active = GI50 below about 0.43 µM; inactive = the rest
Response enum: active, inactive

C=C[C@]1(C)C=C2C(=O)[C@@]3(O)OC[C@@]4(CCCC(C)(C)C43O)C2(O)C(O)C1 (stereo partly specified) = inactive
COC(=O)[C@@H]1CCCN1C(=O)[C@@H]1CCCN1C(=O)[C@@H](Cc1c[nH]c2ccccc12)NC(=S)Nc1cc(C(F)(F)F)cc(C(F)(F)F)c1 = inactive
Oc1cc(Cl)ccc1Oc1ccc(Cl)cc1Cl = inactive
N#CC1C(N)=NNC12Nc1ccccc1N2 (stereo unspecified) = inactive
CCc1c2c(nc3cccc(N)c13)-c1cc3c(c(=O)n1C2)COC(=O)[C@]3(O)CC = active

Each compound tested received a call. Report the one for `CC(C)OC(=O)c1ccc2[nH]c(O)c(C(=Nc3ccc(N(C)C(=O)CN4CCN(C)CC4)cc3)c3ccccc3)c2c1` .
active

---

# Tested on: HOP-62 NSCLC
# TEST: NCI tumour cell line growth inhibition, 48 h
Reported values of TGI for individual entries

COC(=O)C(=O)C(C(=O)C=C(C)C)C(=O)C(=O)Nc1cccc(C(C)=O)c1 (stereo not drawn) = > 100 µM
Cc1cccc(C)c1NC(=O)CCCC(=O)C1CC(=O)CCC1=O (stereo not drawn) = > 100 µM

Please look up its TGI: `O=C1CCc2cc3c(cc21)CC1(Cc2ccccc2C1)C3`
> 84.6 µM

Please look up its TGI: O=C1C(=O)N(C2C3CC4CC(C3)CC2C4)C(=O)C(=O)C1c1nc2ccccc2o1 (stereo not drawn)
> 100 µM

---

Reported values of TGI for individual entries
# Tested on: TK-10 renal
# TEST: NCI tumour cell line growth inhibition, 48 h

C[C@H](CS(C)(=O)=O)Nc1ncc2cc(Oc3ccc(F)cc3F)c(=O)n(C)c2n1 = > 25 µM
CCOC(=O)C(O)(NC(=O)Nc1ccc(F)cc1)C(F)(F)F (stereo unspecified) = > 100 µM
O=C(NN1C(=O)CSC1c1ccc(Cl)cc1)c1[nH]c2ccc(F)cc2c1-c1ccccc1 (stereo unspecified) = 5.52 µM
O=C1C(=O)N(C2CCCCC2)C(=S)N1C1CCCCC1 = > 100 µM
Fc1ccc(Nc2nccc(-c3c(-c4ccc(C(F)(F)F)cc4)nn4ncccc34)n2)cc1F = > 25 µM

Next item in the queue.
Param readout= TGI; system= TK-10 renal; entry= `N#Cc1ccccc1NC(=O)c1ccccc1` ; returns value.
> 100 µM

---

# Test system: OVCAR-5 ovarian
# TEST: NCI tumour cell line growth inhibition, 48 h
Reported values of GI50 for individual entries

Use these answered entries as a reference point.
O=C(NN1C(=O)CSC1c1ccc(Cl)cc1)c1[nH]c2ccc(F)cc2c1-c1ccccc1 (stereo not drawn) = 2.64 µM
CCN1C(=O)N(CC)C2C1NN=c1s/c(=C3\C(=O)N(C)c4ccccc43)c(=O)n12 (stereo not drawn) = 3.3 µM
COc1cnc2c(c1)C(=O)c1c-2n(CCCN2CCCC2)c(=O)c2cc(Cl)ccc12 = 5.02 µM

Param readout= GI50; system= OVCAR-5 ovarian; entry= C=C[C@]1(C)C=C2C(=O)[C@@]3(O)OC[C@@]4(CCCC(C)(C)C43O)C2(O)C(O)C1 (stereo partly drawn) ; returns value.
12.1 µM

Param readout= GI50; system= OVCAR-5 ovarian; entry= `Fc1ccc(Nc2nc(NCCNc3ccnc4cc(Cl)ccc34)nc(N3CCOCC3)n2)cc1` ; returns value.
17.6 µM

Param readout= GI50; system= OVCAR-5 ovarian; entry= `Nc1nc(Nc2cccc(F)c2)nc2ccccc12` ; returns value.
17.4 µM

Param readout= GI50; system= OVCAR-5 ovarian; entry= `Cn1cc(-c2ccc3c(c2)CCN3C(=O)Cc2cccc(C(F)(F)F)c2)c2c(N)ncnc21` ; returns value.
12.2 µM

Param readout= GI50; system= OVCAR-5 ovarian; entry= `C[C@H](CS(C)(=O)=O)Nc1ncc2cc(Oc3ccc(F)cc3F)c(=O)n(C)c2n1` ; returns value.
> 25 µM

---

# Test system: SNB-19 CNS
# TEST: NCI tumour cell line growth inhibition, 48 h
READOUT LABEL: log10(TGI) (log10 of the value in µM)
// units: µM (pre-log); metric: TGI; scale: log10

Use these answered entries as a reference point.
O=Cc1cc2c(o1)C(=O)c1ccccc1C2=O = 0.21
NCCCc1ccc2oc3ccccc3c2c1 = 1.49
CC[CH2][Pb]([CH2]CC)([CH2]CC)[NH]S(=O)(=O)c1ccc(C)cc1 = -0.84
COC(=O)[C@@]12OC[C@]34C([C@@H](O)C1O)[C@@]1(C)CC(=O)C(O)=C(C)C1C[C@H]3OC(=O)[C@H](OC(=O)CC(C)C(F)(F)F)[C@H]42 (some centres undefined) = -0.97

Next item in the queue.
Please look up its log10(TGI): CC1CC[C@@]2(OC1)OC1C[C@H]3[C@@H]4CC[C@H]5CC(OC6OC(CO)C(OC7OC(CO)C(O)C(O)C7O)C(O)C6O)CCC5(C)[C@H]4CCC3(C)C1[C@@H]2C (some centres undefined)
1.25

---

# System: OVCAR-3 ovarian
# TEST: NCI tumour cell line growth inhibition, 48 h; in the data active means GI50 below about 0.43 µM; inactive means the rest
Response enum: active, inactive

These solved cases illustrate the format of a correct answer.
O=c1oc2ccc(Cl)cc2c(=O)n1-c1ccc(I)cc1F = active
CC(=O)C1=C([O-])C(C)OC1=O.CC(=O)C1=C([O-])C(C)OC1=O.[NH-]C1CCCC[C@H]1[NH-].[Pt+4] (stereo not given) = inactive
Cc1ccc2c(c1)ncn2-c1ncnc2c1CC(C)c1ccccc1N2C (stereo not given) = active
COc1ccc2c(c1)C(=O)c1c-2n(CCCN2CCOCC2)c(=O)c2ccccc12 = inactive
COc1cc2cc(Oc3ccc(NC(=O)c4ccc(Cl)c(C(F)(F)F)c4)cc3)c(C)nc2cc1OC = inactive

Each compound tested received a call. Report the one for `CN(C)c1ccc(N=Nc2c([O-])ccc3ccccc23)cc1.[C-]#[O+].[C-]#[O+].[Ir]` .
inactive

Each compound tested received a call. Report the one for `Cc1c(C)c2ccc(OC/C=C3\CCC(=O)O3)cc2oc1=O` .
inactive

Source of measurements: PubChem BioAssay (NCI)
